- Tested on: Ba/F3-FGFR1-transfected cells in the presence of 10 ng/ml murine IL3
- measurement.protocol: Ba/F3-FGFR1 (plus IL3) cellular proliferation counterscreen, Alamar Blue
- Assay type: cell-based
- measurement.context: Mus musculus; plus IL3, 384 well; read-out: BAF3-FGFR 1 (PLUS IL3) 384 well pIC50 (converted)
Overview of reported IC50 across a group of molecules:
assay.readout: IC50

given.smiles: COc1cc(OC)cc(N(CCCNC(C)C)c2ccc3ncc(-c4ccnc(N)c4)nc3c2)c1
assay.readout: IC50
result: 5.62 µM

given.smiles: COc1cc(OC)cc(N(CC2CC2)c2ccc3ncc(-c4cn[nH]n4)nc3c2)c1
assay.readout: IC50
result: > 10 µM

given.smiles: COc1cc(OC)cc(N(CCNC(C)C)c2ccc3ncc(C(=O)NCCN4CCOCC4)nc3c2)c1
assay.readout: IC50
result: > 10 µM

given.smiles: COc1cc(OC)cc(N(CCNC(C)C)c2ccc3ncc(C(=O)N4CCCCC4)nc3c2)c1
assay.readout: IC50
result: > 10 µM
